Origin of measurements: ChEMBL document CHEMBL1139482

Organism: Homo sapiens
EXPERIMENT DESCRIPTION: Induction of G-quadruplex in G-rich human telomere 21 DNA assessed as circular dichroism spectral change at 50 uM
The source made the active and inactive calls. The rule behind the calls is not given here.
ASSAY READOUT: Activity

Some compounds with known Activity results, for comparison:
INSERT INTO results (molecular_string, measured_value) VALUES
  ('CN(C)CCNc1c2ccccc2nc2c1[nH]c1ccccc12', 'Active'),
  ('OCCNc1c2ccccc2nc2c1oc1ccccc12', 'Active'),
  ('OCCCNc1c2ccccc2nc2c1oc1ccccc12', 'Active'),
  ('CN(C)CCCNc1c2ccccc2nc2c1oc1ccccc12', 'Active'),
  ('c1ccc2c(NCCN3CCOCC3)c3oc4ccccc4c3nc2c1', 'Active');

List Activity for every entry below, keeping the order given.
1. CN(C)CCCNc1c2ccccc2nc2c1[nH]c1ccccc12
2. OCCCNc1c2ccccc2nc2c1[nH]c1ccccc12
3. OCCNc1c2ccccc2nc2c1[nH]c1ccccc12
4. CN(C)CCNc1c2ccccc2nc2c1oc1ccccc12
5. c1ccc2c(NCCN3CCOCC3)c3[nH]c4ccccc4c3nc2c1

1: Active; 2: Active; 3: Active; 4: Active; 5: Active
